- MEASURED_TARGET: T1, human TfR extracellular domain with N-terminal His tag (human, UniProt P02786 89-760)
- T1 construct: Biotinylated in some assays; also called huTfR; HuTfR
- T1 sequence (P02786 89-760 G142S): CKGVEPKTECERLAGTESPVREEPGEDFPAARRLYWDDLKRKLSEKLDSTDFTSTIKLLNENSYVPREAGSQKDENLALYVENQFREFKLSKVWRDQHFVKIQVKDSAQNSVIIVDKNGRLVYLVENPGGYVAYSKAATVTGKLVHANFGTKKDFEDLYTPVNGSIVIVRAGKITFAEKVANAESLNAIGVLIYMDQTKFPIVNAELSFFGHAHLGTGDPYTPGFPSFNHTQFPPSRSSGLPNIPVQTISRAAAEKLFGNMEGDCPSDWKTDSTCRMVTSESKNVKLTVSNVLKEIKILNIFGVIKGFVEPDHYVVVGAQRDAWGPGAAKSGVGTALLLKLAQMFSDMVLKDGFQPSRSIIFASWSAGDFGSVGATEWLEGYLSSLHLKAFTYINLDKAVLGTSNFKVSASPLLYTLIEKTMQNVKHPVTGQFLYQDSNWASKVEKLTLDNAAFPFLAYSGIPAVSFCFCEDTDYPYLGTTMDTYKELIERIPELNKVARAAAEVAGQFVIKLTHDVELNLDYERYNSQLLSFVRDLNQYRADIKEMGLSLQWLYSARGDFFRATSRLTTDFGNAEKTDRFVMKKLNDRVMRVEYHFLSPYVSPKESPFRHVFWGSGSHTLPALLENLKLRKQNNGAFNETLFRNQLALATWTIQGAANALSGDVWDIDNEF
- MEASUREMENT_NOTES: SPR steady state, IgG
TEST_READOUT: pKd
Numbers only, as −log10 of the molar value.

{"columns": ["BINDER", "pKd"],
 "data": [
  ["T96A (antibody, V domains shown, also called 15G11.v5 T96A (CDR-H3) IgG; copies: 2 + 2) VH: EVQLVQSGAEVKKPGASVKVSCKASGYTFTSYWMHWVRQAPGQRLEWIGEINPTNGRTNYIEKFKSRATLTVDKSASTAYMELSSLRSEDTAVYYCARGARAYHYWGQGTMVTVSS VL: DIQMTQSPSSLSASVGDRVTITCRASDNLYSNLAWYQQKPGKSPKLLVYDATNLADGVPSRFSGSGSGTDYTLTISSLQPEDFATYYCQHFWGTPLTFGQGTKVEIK", 6.36],
  ["Q89A (antibody, V domains shown, also called 15G11.v5 Q89A (CDR-L3) IgG) VH: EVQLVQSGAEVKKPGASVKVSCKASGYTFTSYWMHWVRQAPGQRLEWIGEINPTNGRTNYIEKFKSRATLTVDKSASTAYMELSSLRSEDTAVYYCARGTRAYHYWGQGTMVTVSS VL: DIQMTQSPSSLSASVGDRVTITCRASDNLYSNLAWYQQKPGKSPKLLVYDATNLADGVPSRFSGSGSGTDYTLTISSLQPEDFATYYCAHFWGTPLTFGQGTKVEIK", 6.67],
  ["G93A (antibody, V domains shown, also called 15G11.v5 G93A (CDR-L3) IgG) VH: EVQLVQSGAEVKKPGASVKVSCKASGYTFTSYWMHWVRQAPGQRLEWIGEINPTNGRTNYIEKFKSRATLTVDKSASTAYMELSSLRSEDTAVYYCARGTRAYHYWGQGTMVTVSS VL: DIQMTQSPSSLSASVGDRVTITCRASDNLYSNLAWYQQKPGKSPKLLVYDATNLADGVPSRFSGSGSGTDYTLTISSLQPEDFATYYCQHFWATPLTFGQGTKVEIK", 6.82],
  ["P95A (antibody, V domains shown, also called 15G11.v5 P95A (CDR-L3) IgG) VH: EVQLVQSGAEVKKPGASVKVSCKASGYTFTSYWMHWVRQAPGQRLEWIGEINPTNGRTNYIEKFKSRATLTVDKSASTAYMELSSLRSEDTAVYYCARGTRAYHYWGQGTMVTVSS VL: DIQMTQSPSSLSASVGDRVTITCRASDNLYSNLAWYQQKPGKSPKLLVYDATNLADGVPSRFSGSGSGTDYTLTISSLQPEDFATYYCQHFWGTALTFGQGTKVEIK", 7.03],
  ["F91A (antibody, V domains shown, also called 15G11.v5 F91A (CDR-L3) IgG) VH: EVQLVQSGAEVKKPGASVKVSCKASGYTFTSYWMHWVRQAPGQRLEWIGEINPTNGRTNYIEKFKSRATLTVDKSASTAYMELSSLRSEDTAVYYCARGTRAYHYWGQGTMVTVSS VL: DIQMTQSPSSLSASVGDRVTITCRASDNLYSNLAWYQQKPGKSPKLLVYDATNLADGVPSRFSGSGSGTDYTLTISSLQPEDFATYYCQHAWGTPLTFGQGTKVEIK", 6.64]
]}

Next, consider the following binder.
Exercise: Please list pKd recorded for the binder W92A (antibody, V domains shown, also called 15G11.v5 W92A (CDR-L3) IgG; 15G11.W92A) VH: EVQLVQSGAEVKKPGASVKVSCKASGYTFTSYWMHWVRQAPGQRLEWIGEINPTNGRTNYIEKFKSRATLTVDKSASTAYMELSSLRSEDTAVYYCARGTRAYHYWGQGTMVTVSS VL: DIQMTQSPSSLSASVGDRVTITCRASDNLYSNLAWYQQKPGKSPKLLVYDATNLADGVPSRFSGSGSGTDYTLTISSLQPEDFATYYCQHFAGTPLTFGQGTKVEIK
Solution: 6.91
